- Type: physicochemical
- ASSAY CONTEXT: at 25° C.
# Solubility listing for each entry below
VALUE KIND: Solubility

COMPOUND: COc1ccc(/C=C\c2cc(OC)c(OC)c(OP(=O)([O-])O)c2)cc1OP(=O)([O-])O.[Na+].[Na+] [Compound 10a]
VALUE KIND: Solubility
RESULT: >218 mg/mL
--
COMPOUND: COc1ccc(/C=C\c2cc(OC)c(OC)c(OP(=O)([O-])O)c2)cc1OP(=O)([O-])O.[Rb+].[Rb+] [Compound 10d]
VALUE KIND: Solubility
RESULT: >60 mg/mL
--
COMPOUND: C1COCCN1.C1COCCN1.COc1ccc(C=Cc2cc(OC)c(OC)c(OP(=O)(O)O)c2)cc1OP(=O)(O)O [Compound 10k]
VALUE KIND: Solubility
RESULT: >40 mg/mL
--
COMPOUND: COc1ccc(/C=C\c2cc(OC)c(OC)c(OP(=O)([O-])[O-])c2)cc1OP(=O)([O-])[O-].[Mg+2].[Mg+2] [Compound 10h]
VALUE KIND: Solubility
RESULT: 10 mg/mL
--
COMPOUND: COc1ccc(/C=C\c2cc(OC)c(OC)c(OP(=O)([O-])O)c2)cc1OP(=O)([O-])O.[K+].[K+] [Compound 10c]
VALUE KIND: Solubility
RESULT: >228 mg/mL
--
COMPOUND: COc1ccc(/C=C\c2cc(OC)c(OC)c(OP(=O)([O-])O)c2)cc1OP(=O)([O-])O.[Li+].[Li+] [Compound 10b]
VALUE KIND: Solubility
RESULT: >100 mg/mL
--
COMPOUND: COc1ccc(/C=C\c2cc(OC)c(OC)c(OP(=O)(O)O)c2)cc1OP(=O)(O)O.NC(=O)c1cccnc1.NC(=O)c1cccnc1.NC(=O)c1cccnc1.NC(=O)c1cccnc1 [Compound 10l]
VALUE KIND: Solubility
RESULT: 27 mg/mL
